protocolSummary: Phase 1b study in NASH patients: pharmacokinetics
Format: in vivo, human
protocolConditions: both sexes, human, plasma; 50 mg QD oral, NASH patients, mean (standard deviation)
measurementLabel: AUC(0-t) (ng·h/mL)
Numbers only, in ng·h/mL.

Recorded AUC(0-t) for C[C@H](CCCC(C)(C)O)[C@H]1CC[C@H]2[C@@H]3CC=C4C[C@@H](OS(=O)(=O)O)CC[C@]4(C)[C@H]3CC[C@]12C [25HC3S, 5-cholesten-3,25-diol, 3-sulfate] , please?
340

====

protocolSummary: Phase 1b study in NASH patients: pharmacokinetics
Format: in vivo, human
protocolConditions: both sexes, human, plasma; 50 mg QD oral, NASH patients, mean (standard deviation)
measurementLabel: Cmax
The answer consists of two parts: a number and, after it, its unit.

Recorded Cmax for C[C@H](CCCC(C)(C)O)[C@H]1CC[C@H]2[C@@H]3CC=C4C[C@@H](OS(=O)(=O)O)CC[C@]4(C)[C@H]3CC[C@]12C [25HC3S, 5-cholesten-3,25-diol, 3-sulfate] , please?
79.1 ng/mL

====

protocolSummary: Phase 1b study in NASH patients: pharmacokinetics
Format: in vivo, human
protocolConditions: both sexes, human, plasma; 50 mg QD oral, NASH patients, mean (standard deviation)
measurementLabel: half-life (h)
Numbers only, in h.

Recorded half-life for C[C@H](CCCC(C)(C)O)[C@H]1CC[C@H]2[C@@H]3CC=C4C[C@@H](OS(=O)(=O)O)CC[C@]4(C)[C@H]3CC[C@]12C [25HC3S, 5-cholesten-3,25-diol, 3-sulfate] , please?
2.7

====

protocolSummary: Phase 1b study in NASH patients: pharmacokinetics
Format: in vivo, human
protocolConditions: both sexes, human, plasma; 150 mg QD oral, NASH patients, mean (standard deviation)
measurementLabel: AUC(0-t) (ng·h/mL)
One number for each entry, in ng·h/mL.

Recorded AUC(0-t) for C[C@H](CCCC(C)(C)O)[C@H]1CC[C@H]2[C@@H]3CC=C4C[C@@H](OS(=O)(=O)O)CC[C@]4(C)[C@H]3CC[C@]12C [25HC3S, 5-cholesten-3,25-diol, 3-sulfate] , please?
1040

====

protocolSummary: Phase 1b study in NASH patients: pharmacokinetics
Assay type: in vivo, human
protocolConditions: both sexes, human, plasma; 300 mg BID oral, NASH patients, mean (standard deviation)
measurementLabel: Cmax (ng/mL)
One number for each entry, in ng/mL.

Recorded Cmax for C[C@H](CCCC(C)(C)O)[C@H]1CC[C@H]2[C@@H]3CC=C4C[C@@H](OS(=O)(=O)O)CC[C@]4(C)[C@H]3CC[C@]12C [25HC3S, 5-cholesten-3,25-diol, 3-sulfate] , please?
430
